Values from patent US5405843A

Tested on: Vincristine-resistant strain P388/VCR cells of mouse leukemia P388 cells
Assay: Potentiating effect on vincristine in mice having vincristine-resistant mouse leukemia (survival)
Format: in vivo, mouse (female CDFI mice)
Conditions: compound 30 mg/kg + vincristine 100 ug/kg, peritoneal, once a day for 5 days; control = 100
The reader will find reported T/C (rate of life prolongation) values listed item by item below.
Please give a number only; it is taken to be in %.

compound: COc1ccc(C(c2cccc(OC)c2OC)N2CCN(CC(O)COc3cccc4ncccc34)CC2)cc1OC (centres unmarked)
system.tested: Vincristine-resistant strain P388/VCR cells of mouse leukemia P388 cells
units.of.measure: %
measured.number: 115

compound: Cc1cc(C)c2c(OCC(O)CN3CCN(C(=O)N4c5ccccc5CCc5ccccc54)CC3)cccc2n1 (centres unmarked)
system.tested: Vincristine-resistant strain P388/VCR cells of mouse leukemia P388 cells
units.of.measure: %
measured.number: 108

Task: I'd like to know its T/C (rate of life prolongation). The compound in question is "O=C(CCN1CCN(C(c2ccccc2)c2ccccc2)CC1)Nc1cccc2ncccc12"
Result: 116
